Target: CYP3A4 (Homo sapiens (Human))
Sequence (P08684 whole entry): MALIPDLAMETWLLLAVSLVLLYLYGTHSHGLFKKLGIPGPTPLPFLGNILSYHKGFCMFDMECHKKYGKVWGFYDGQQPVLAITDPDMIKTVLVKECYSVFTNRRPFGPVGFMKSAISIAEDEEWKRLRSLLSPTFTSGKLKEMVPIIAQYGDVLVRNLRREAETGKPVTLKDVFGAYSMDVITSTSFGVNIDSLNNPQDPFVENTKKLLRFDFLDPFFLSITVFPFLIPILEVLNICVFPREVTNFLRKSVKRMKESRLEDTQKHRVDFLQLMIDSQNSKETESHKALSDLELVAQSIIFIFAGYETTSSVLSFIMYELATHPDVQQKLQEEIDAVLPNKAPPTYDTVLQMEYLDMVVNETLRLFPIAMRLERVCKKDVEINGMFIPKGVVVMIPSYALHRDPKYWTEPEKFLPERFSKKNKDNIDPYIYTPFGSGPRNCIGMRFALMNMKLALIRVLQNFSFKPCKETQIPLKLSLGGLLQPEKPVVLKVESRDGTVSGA
Assay: Cytochrome P450 inhibition assay, recombinant CYP3A4 (BFC substrate)
Assay type: in vitro ADME
Settings: recombinant enzyme
MEASURED_PARAMETER: IC50 (µM)

[[record]]
compound = "CN1CO[C@H](c2ccccc2)[C@@H](c2ccc3ccccc3c2)C1"
study_target = "CYP3A4 (Homo sapiens (Human))"
measured_parameter = "IC50"
reported_measurement = 20

[[record]]
compound = "CNCC(C[C@H](O)c1ccccc1)c1ccc2ccccc2c1 (some centres unmarked)"
study_target = "CYP3A4 (Homo sapiens (Human))"
measured_parameter = "IC50"
reported_measurement = 20

[[record]]
compound = "CNC[C@H](c1ccc(Br)c(Cl)c1)[C@@H](O)c1ccccc1"
study_target = "CYP3A4 (Homo sapiens (Human))"
measured_parameter = "IC50"
reported_measurement = 20


[a] CNC[C@H](c1ccc2ccccc2c1)[C@H](Cl)c1ccccc1
[b] CNC[C@@H](c1ccc(Cl)c(Cl)c1)[C@@H](O)c1cccc(OC)n1
Incoming: Could you tell me which of these two has the smaller IC50 figure? First: a Second: b Refer to your chosen item by its label in the answer.
Outgoing: a

[1] CNCC(Cc1ccccc1C)c1ccc2ccccc2c1 (centres unmarked) [Compound 134]
[2] CNC[C@@H](c1ccc(Cl)c(Cl)c1)[C@@H](O)c1cccnc1OC
Incoming: # argmax over IC50 for candidates 1 and 2 Refer to your chosen item by its label in the answer.
Outgoing: 2

[1] CNC[C@H](c1ccc2ccccc2c1)[C@H](O)c1cncc(OC)c1
[2] CNC[C@@H](c1ccc(Cl)c(Cl)c1)[C@@H](O)c1cccc(Br)c1
Incoming: # argmax over IC50 for candidates 1 and 2 Refer to your chosen item by its label in the answer.
Outgoing: 1

====

Biological target: CYP2D6 (Homo sapiens (Human))
Sequence (P10635 whole entry): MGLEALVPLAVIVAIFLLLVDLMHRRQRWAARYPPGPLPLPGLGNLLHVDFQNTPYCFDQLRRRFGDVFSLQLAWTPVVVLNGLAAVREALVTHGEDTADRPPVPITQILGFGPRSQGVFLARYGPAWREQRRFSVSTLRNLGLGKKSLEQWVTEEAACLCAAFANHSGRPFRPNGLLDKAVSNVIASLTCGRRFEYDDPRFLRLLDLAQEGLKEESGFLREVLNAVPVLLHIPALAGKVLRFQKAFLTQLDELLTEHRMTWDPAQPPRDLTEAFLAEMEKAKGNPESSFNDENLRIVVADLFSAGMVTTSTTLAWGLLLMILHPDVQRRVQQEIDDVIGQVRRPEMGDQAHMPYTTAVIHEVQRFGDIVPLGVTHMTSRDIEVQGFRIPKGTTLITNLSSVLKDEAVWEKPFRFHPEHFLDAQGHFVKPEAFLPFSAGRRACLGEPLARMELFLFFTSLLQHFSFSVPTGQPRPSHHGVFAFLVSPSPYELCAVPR
Assay: Cytochrome P450 inhibition assay, recombinant CYP2D6 (MAMC substrate)
Conditions: recombinant enzyme
pIC50: −log10 of the molar value.
MEASURED_PARAMETER: pIC50

Before answering, review these 10 worked examples.
[[record]]
compound = "CNC[C@H](c1ccc(Br)c(Cl)c1)[C@H](O)c1ccccc1 (racemic)"
measured_parameter = "pIC50"
reported_measurement = 6.96

[[record]]
compound = "CNCC(c1ccc(Br)c(Cl)c1)[C@H](O)c1ccccc1 (stereo partly drawn)"
measured_parameter = "pIC50"
reported_measurement = 6.64

[[record]]
compound = "CNC[C@@H](c1ccc2ccccc2c1)[C@@H](O)c1ccccc1F"
measured_parameter = "pIC50"
reported_measurement = 5.96

[[record]]
compound = "CNC[C@@H](c1ccc(Br)c(Cl)c1)[C@@H](O)c1ccccc1"
measured_parameter = "pIC50"
reported_measurement = 5.72

[[record]]
compound = "CNC[C@H](c1ccc2ccccc2c1)[C@H](OCc1noc(C)n1)c1ccccc1"
measured_parameter = "pIC50"
reported_measurement = 6.74

[[record]]
compound = "CNC[C@@H](c1ccc2ccccc2c1)[C@@H](O)c1cccnc1 [Compound 49]"
measured_parameter = "pIC50"
reported_measurement = 5.77

[[record]]
compound = "NC[C@@H](Cc1ccccc1O)c1ccc2ccccc2c1"
measured_parameter = "pIC50"
reported_measurement = 6.24

[[record]]
compound = "CNC[C@@H](Cc1ccccc1)c1ccc2ccccc2c1"
measured_parameter = "pIC50"
reported_measurement = 6.62

[[record]]
compound = "CNC[C@H](c1ccc2ccccc2c1)[C@H](OC)c1ccc2c(c1)OCO2 (racemic)"
measured_parameter = "pIC50"
reported_measurement = 6.72

[[record]]
compound = "CNC[C@H](c1ccc2ccccc2c1)[C@H](O)c1ccncc1"
measured_parameter = "pIC50"
reported_measurement = 6.06


[1] CNC[C@@H](c1ccc(Cl)c(Cl)c1)[C@@H](O)c1cccc(N(C)C)c1 (single isomer, unassigned)
[2] CNCC(c1ccc2ccccc2c1)[C@H](CO)c1ccccc1 (single isomer, unassigned)
Incoming: # argmax over pIC50 for candidates 1 and 2 Refer to your chosen item by its label in the answer.
Outgoing: 2
(2: 6.49, 1: 5.66)

[P] CNC[C@H](c1ccc2ccccc2c1)[C@H](N)c1ccccc1
[Q] CNC[C@H](c1ccc2ccccc2c1)[C@@H](Cl)c1ccccc1
[R] CNC[C@@H](c1ccc2ccccc2c1)[C@H](O)c1ccccn1 [Compound 99]
Incoming: Rank items: key pIC50, increasing. Sort and list the labels as requested.
Outgoing: R, Q, P

====

Molecular target: CYP2D6 (Homo sapiens (Human))
Assay: Cytochrome P450 inhibition assay, recombinant CYP2D6 (MAMC substrate)
Format: in vitro ADME
Conditions: recombinant enzyme
pIC50: −log10 of the molar value.
MEASURED_PARAMETER: pIC50

[[record]]
molecule = "CNC[C@H](c1ccc2ccccc2c1)[C@H](OCC(N)=O)c1ccccc1"
measured_parameter = "pIC50"
reported_measurement = 5.89


[a] CNC[C@@H](c1ccc(Cl)c(Cl)c1)[C@@H](O)c1cccc(N2CCOCC2)c1
[b] CNC[C@@H](c1ccc(Cl)c(Cl)c1)[C@@H](O)c1cccc(N)c1
Incoming: Could you tell me which of these two has the smaller pIC50 figure? First: a Second: b Refer to your chosen item by its label in the answer.
Outgoing: b

[A] CNC[C@H](c1ccc2ccccc2c1)[C@H](O)c1ccccc1C [Compound 28]
[B] CNC[C@@H](c1ccc(Cl)c(Cl)c1)[C@@H](O)c1cccc([S+](C)[O-])c1 (single isomer, unassigned)
Incoming: # argmax over pIC50 for candidates A and B Refer to your chosen item by its label in the answer.
Outgoing: A
(A: 6.80, B: 4.82)

====

Biological target: human dopamine transporter (Homo sapiens (Human), UniProt Q01959)
Sequence (Q01959 whole entry): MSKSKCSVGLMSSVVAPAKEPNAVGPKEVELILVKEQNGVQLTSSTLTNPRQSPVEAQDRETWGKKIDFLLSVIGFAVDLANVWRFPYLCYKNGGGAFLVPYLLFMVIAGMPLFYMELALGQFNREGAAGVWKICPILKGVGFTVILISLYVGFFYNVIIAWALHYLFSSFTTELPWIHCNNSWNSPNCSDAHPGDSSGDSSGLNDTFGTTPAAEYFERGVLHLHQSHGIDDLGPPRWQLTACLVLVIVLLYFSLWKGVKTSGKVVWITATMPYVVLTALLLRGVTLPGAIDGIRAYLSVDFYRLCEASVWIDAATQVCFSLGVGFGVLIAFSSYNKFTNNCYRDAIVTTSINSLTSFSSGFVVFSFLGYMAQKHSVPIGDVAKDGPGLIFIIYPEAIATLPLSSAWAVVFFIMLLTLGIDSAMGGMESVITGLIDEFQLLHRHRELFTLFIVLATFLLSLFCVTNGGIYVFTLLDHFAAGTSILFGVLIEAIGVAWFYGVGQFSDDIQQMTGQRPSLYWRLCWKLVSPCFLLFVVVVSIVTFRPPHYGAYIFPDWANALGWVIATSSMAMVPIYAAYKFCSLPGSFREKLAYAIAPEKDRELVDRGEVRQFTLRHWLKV
Experiment: Human DAT (dopamine transporter) uptake assay
Assay type: cell-based
Settings: read-out: hDAT Ki
pKi: −log10 of the molar value.
MEASURED_PARAMETER: pKi

Before answering, review these 5 worked examples.
[[record]]
compound = "NCC[C@@H](Cc1cccnc1)c1ccc(Cl)c(Cl)c1 [Compound 112]"
study_target = "human dopamine transporter (Homo sapiens (Human), UniProt Q01959)"
reported_measurement = 6.56

[[record]]
compound = "CNC[C@@H](c1ccc(Br)c(Cl)c1)[C@H](O)c1ccccc1 (racemic) [Compound 150]"
study_target = "human dopamine transporter (Homo sapiens (Human), UniProt Q01959)"
reported_measurement = 7.50

[[record]]
compound = "CNC[C@H](c1ccc2ccccc2c1)[C@H](OCC(=O)NC1CC1)c1ccccc1 [Compound 13]"
study_target = "human dopamine transporter (Homo sapiens (Human), UniProt Q01959)"
reported_measurement = 7.71

[[record]]
compound = "CNCC(Cc1ccccc1CO)c1ccc2ccccc2c1 (stereo not drawn) [Compound 90]"
study_target = "human dopamine transporter (Homo sapiens (Human), UniProt Q01959)"
reported_measurement = 7.06

[[record]]
compound = "CN(C)C[C@H](c1ccc2ccccc2c1)[C@H](O)c1ccccc1 [Compound 83]"
study_target = "human dopamine transporter (Homo sapiens (Human), UniProt Q01959)"
reported_measurement = 7.33


[a] CNC[C@H](c1ccc2ccccc2c1)[C@H](OCC(=O)N1CCCC1)c1ccccc1 [Compound 50]
[b] CNC[C@@H](c1ccc(Cl)c(Cl)c1)[C@@H](O)c1ccccc1[S+](C)[O-] (stereo partly drawn) [Compound 128]
Incoming: # argmax over pKi for candidates a and b Refer to your chosen item by its label in the answer.
Outgoing: a

[a] CNCC(Cc1ccccc1C)c1ccc2ccccc2c1 (stereo not drawn) [Compound 39]
[b] CNCC(Cc1ccccc1CO)c1ccc2ccccc2c1 (stereo not drawn) [Compound 2]
Incoming: Could you tell me which of these two has the smaller pKi figure? First: a Second: b Refer to your chosen item by its label in the answer.
Outgoing: a
(a: 7.46, b: 8.26)

====

Target: human dopamine transporter (Homo sapiens (Human), UniProt Q01959)
Assay: Human DAT (dopamine transporter) uptake assay
Type: cell-based
Conditions: read-out: hDAT Ki
pKi: −log10 of the molar value.
MEASURED_PARAMETER: pKi

Before answering, review these 4 worked examples.
[[record]]
compound = "CNC[C@H](c1ccc2ccccc2c1)[C@H](OCC(=O)N(C)C)c1ccccc1 [Compound 33]"
reported_measurement = 7.88

[[record]]
compound = "CNC[C@H](c1ccc2ccccc2c1)[C@H](N)c1ccccc1 [Compound 87]"
reported_measurement = 6.94

[[record]]
compound = "CNC[C@@H](c1ccc2ccccc2c1)[C@@H](OCC(N)=O)c1ccccc1 [Compound 117]"
reported_measurement = 7.89

[[record]]
compound = "CNC[C@H](c1ccc2ccccc2c1)[C@H](O)c1cncc(OC)c1 [Compound 92]"
reported_measurement = 6.67


[1] NC[C@@H](c1ccc2ccccc2c1)[C@@H](O)c1ccccc1 [Compound 88]
[2] CNC[C@H](c1ccc2ccccc2c1)[C@H](O)c1ccccc1F [Compound 15]
[3] NCC(c1ccc2ccccc2c1)[C@@H](O)c1ccccc1 (stereo partly drawn) [Compound 91]
[4] CNCC(c1ccc2ccccc2c1)[C@@H](O)c1ccc(Cl)nc1 (stereo partly drawn) [Compound 169]
Incoming: Order these by pKi, descending, and give the full ranking. Sort and list the labels as requested.
Outgoing: 2, 1, 4, 3

Values were extracted from patent US9944618B2.
